Assay: Antiproliferative activity against human OMM-1 cells assessed as cell viability measured after 72 hrs incubation by MTT assay
Format: functional, cell-based
Details: OMM-1, 72 h
ENDPOINT LABEL: pEC50
// pEC50: -log10(molar conc.)

Query string: Form field: reported pEC50 of CC(C)NC(=O)N1CC[C@@H](NC2=Nc3cc(F)ccc3N(CC(F)F)c3ccc(Cl)cc32)C1
Result string: 4.92

----------
System: OVCAR-3
Test: Antiproliferative activity against human OVCAR-3 cells assessed as cell viability measured after 72 hrs incubation by MTT assay
Format: functional, cell-based
Details: OVCAR-3, 72 h
ENDPOINT LABEL: pEC50
// pEC50: -log10(molar conc.)

Query string: Form field: reported pEC50 of CC(C)NC(=O)N1CC[C@@H](NC2=Nc3cc(F)ccc3N(CC(F)F)c3ccc(Cl)cc32)C1
Result string: 5.05

Provenance of the data: ChEMBL document CHEMBL5236601
